- experimental system: TTKA (Homo sapiens, UniProt P33981)
- Construct: purchased in-house DSF kinase panel (SGC-style construct names; the trailing letter is the construct ID)
- Sequence (P33981 519-808): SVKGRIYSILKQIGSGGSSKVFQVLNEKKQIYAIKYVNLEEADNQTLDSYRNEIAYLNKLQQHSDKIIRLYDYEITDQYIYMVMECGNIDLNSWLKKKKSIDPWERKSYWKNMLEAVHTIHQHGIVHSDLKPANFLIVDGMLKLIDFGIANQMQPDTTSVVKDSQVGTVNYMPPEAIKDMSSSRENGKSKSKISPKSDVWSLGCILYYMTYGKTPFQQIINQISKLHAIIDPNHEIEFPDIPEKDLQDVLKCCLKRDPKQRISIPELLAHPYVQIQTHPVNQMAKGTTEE
- assay procedure: DSF Tm panel
- Format: binding
- applied conditions: 10 μM compound
measured endpoint: ΔTm at 10 µM (°C)
All answers are understood in °C, so give the number only.

O=C(NCc1ccc(Cl)cc1Cl)Nc1ccc2cc1OCCOCCNc1ccn3ncc-2c3n1 = 1.2
COc1cc(CNC(=O)Nc2ccc3cc2OCCOCCNc2ccn4ncc-3c4n2)ccc1F = 2
C[C@H](NC(=O)Nc1ccc2cc1OCCOCCNc1ccn3ncc-2c3n1)c1ccccc1 = 1.8
O=C(NCc1ccccc1)Nc1ccc2cc1OCCOCCNc1ccn3ncc-2c3n1 = 1.5
CN1CCN(C(=O)Nc2ccc3cc2OCCOCCNc2ccn4ncc-3c4n2)CC1 = 0.3

Attention now turns to another entry.
Any idea what its ΔTm at 10 µM is? The molecule is Cc1cc(Br)ccc1CNC(=O)Nc1ccc2cc1OCCOCCNc1ccn3ncc-2c3n1
2.6

Data provenance: paper PMC12621043
